Subject Of Test: T1, CatE FRET peptide X-KPAAFFRL-Z (not fully specified)
T1 chain: KPAAFFRL
Measured Attribute: Relative proteolytic activity

| Protein | Reported Result |
| --- | --- |
| soluble recombinant human ADAM15, active form (protein) DVVTETKTVELVIVADHSEAQKYRDFQHLLNRTLEVALLLDTFFRPLNVRVALVGLEAWTQRDLVEISPNPAVTLENFLHWRRAHLLPRLPHDSAQLVTGTSFSGPTVGMAIQNSICSPDFSGGVNMDHSTSILGVASSIAHELGHSLGLDHDLPGNSCPCPGPAPAKTCIMEASTDFLPGLNFSNCSRRALEKALLDGMGSCLFERL | ***** |
| soluble recombinant human ADAM8, active (processed) form (protein) RYVELYVVVDNAEFQMLGSEAAVRHRVLEVVNHVDKLYQKLNFRVVLVGLEIWNSQDRFHVSPDPSVTLENLLTWQARQRTRRHLHDNVQLITGVDFTGTTVGFARVSAMCSHSSGAVNQDHSKNPVGVACTMAHEMGHNLGMDHDENVQGCRCQERFEAGRCIMAGSIGSSFPRMFSDCSQAYLESFLERPQSVCLANAP | ***** |
| soluble recombinant human MDC-L, active form (protein) VQEHEKYIEYYLVLDNGEFKRYNENQDEIRKRVFEMANYVNMLYKKLNTHVALVGMEIWTDKDKIKITPNASFTLENFSKWRGSVLSRRKRHDIAQLITATELAGTTVGLAFMSTMCSPYSVGVVQDHSDNLLRVAGTMAHEMGHNFGMFHDDYSCKCPSTICVMDKALSFYIPTDFSSCSRLSYDKFFEDKLSNCLFNAP | ***** |
